target: HDAC 1 (Homo sapiens, UniProt Q13547); assay: HDAC 1 inhibition assay with about 3-hour enzyme/compound preincubation (fluorophore/quencher peptide substrate); type: biochemical; details: 3-hour preincubation of enzyme and compound at room temperature; read-out: HDAC 1 inhibitory activity (IC50 [μM]) (3-hour preincubation)
Sequence (Q13547 whole entry, species assumed): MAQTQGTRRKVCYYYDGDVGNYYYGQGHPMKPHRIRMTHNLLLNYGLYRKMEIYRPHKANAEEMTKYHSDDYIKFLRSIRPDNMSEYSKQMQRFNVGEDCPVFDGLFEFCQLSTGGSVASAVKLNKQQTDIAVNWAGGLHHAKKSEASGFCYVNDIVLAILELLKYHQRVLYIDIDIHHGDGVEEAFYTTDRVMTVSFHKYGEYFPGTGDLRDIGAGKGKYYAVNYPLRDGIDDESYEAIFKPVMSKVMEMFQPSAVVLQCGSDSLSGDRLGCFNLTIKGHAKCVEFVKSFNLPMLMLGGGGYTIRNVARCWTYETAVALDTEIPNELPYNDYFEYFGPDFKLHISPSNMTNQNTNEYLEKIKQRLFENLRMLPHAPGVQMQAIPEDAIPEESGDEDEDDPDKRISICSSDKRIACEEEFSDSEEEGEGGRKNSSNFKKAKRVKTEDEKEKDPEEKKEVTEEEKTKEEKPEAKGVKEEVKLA
Below is a list of entries, each paired with its recorded log10 IC50 value.
endpoint: log10 IC50 (log10 of the value in µM)

>>> value("Nc1ccccc1NC(=O)c1ccc(C2(c3nc(-c4ccc(N5CCNCC5)nc4)cs3)CCOCC2)cc1 [Example 35]")
-2.48
>>> value("Cc1cnc(C2(c3ccc(C(=O)Nc4cc(-c5ccc(F)cc5)ccc4N)cc3)CCOCC2)s1 [Example 63]")
-2.37
>>> value("Nc1ccc(-c2cccs2)cc1NC(=O)c1ccc(C2(c3nc(-c4cccnc4)cs3)CCOCC2)cc1 [Example 22]")
-1.85
>>> value("O=C(NO)c1ccc(C2(c3nccs3)CCOCC2)cc1 [Example 43]")
-0.44
>>> value("Cc1nc2ccccn2c1-c1csc(C2(c3ccc(C(=O)Nc4ccccc4N)cc3)CCCC2)n1 [Example 7]")
-2.10
>>> value("CC(=O)N1CCc2nc(C3(c4ccc(C(=O)Nc5ccccc5N)cc4)CCOCC3)sc2C1 [Example 27]")
-1.72
>>> value("Cc1csc(C2(c3ccc(C(=O)Nc4ccccc4N)cc3)CC2)n1 [Example 16]")
-1.01
>>> value("COCCOc1ccc(-c2csc(C3(c4ccc(C(=O)Nc5ccccc5N)cc4)CCOCC3)n2)cn1 [Example 24]")
-1.89
>>> value("Cc1ccc(-c2ccc(N)c(NC(=O)c3ccc(C4(c5nccs5)CC4)cc3)c2)s1 [Example 52]")
-2.10
